test system: Saccharomyces cerevisiae; assay: protein stability index of tFT-peptide fusion (C-terminal peptide) (PSI (0-1 scale)); higher = more stable (slower turnover); settings: genetic background: wild type; temperature: 37 C;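 further: PSI is a weighted mean of sequencing reads over stability bins, variants kept only with over 10 reads, mCherry proximal and sfGFP distal, peptide attached via GGGS linker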
Would you kindly list protein stability index for each of these sequences?
Reply briefly: the number, and no unit.

Ask: # query: protein stability index | item "FFVFYICSCFLV" | system: Saccharomyces cerevisiae
Reply: 0.442

Ask: # query: protein stability index | item "YPCRLFVRSLLA" | system: Saccharomyces cerevisiae
Reply: 0.375

Ask: # query: protein stability index | item "FKVTWGLFYGSV" | system: Saccharomyces cerevisiae
Reply: 0.595

Ask: # query: protein stability index | item "YLGLSAVAILWM" | system: Saccharomyces cerevisiae
Reply: 0.529

---

Would you kindly list protein stability index for each of these sequences?
tested on: Saccharomyces cerevisiae; test: protein stability index of tFT-peptide fusion (C-terminal peptide) (PSI (0-1 scale)); higher = more stable (slower turnover); settings: genetic background: das1 deletion; temperature: 37 C
Reply briefly: the number, and no unit.

Ask: May I ask what protein stability index has been recorded for "AWGSWTLCVAVH" ?
Reply: 0.0713

Ask: May I ask what protein stability index has been recorded for "RRTTIFDTKEPP" ?
Reply: 0.575

Ask: May I ask what protein stability index has been recorded for "GINYSNKKILVN" ?
Reply: 0.691

Ask: May I ask what protein stability index has been recorded for "VFVGGVSVLILF" ?
Reply: 0.602

Ask: May I ask what protein stability index has been recorded for "GFFFWTMCFWVV" ?
Reply: 0.456

Ask: May I ask what protein stability index has been recorded for "LFLLSVNLLLGY" ?
Reply: 0.191

Ask: May I ask what protein stability index has been recorded for "CFSIPLVILNVL" ?
Reply: 0.531

Ask: May I ask what protein stability index has been recorded for "VWFVFVCAVCVL" ?
Reply: 0.346

Ask: May I ask what protein stability index has been recorded for "GFSPLFVLVFGV" ?
Reply: 0.518

Ask: May I ask what protein stability index has been recorded for "LKFSLLLPVQVI" ?
Reply: 0.403

Ask: May I ask what protein stability index has been recorded for "RSFPCITVFIRA" ?
Reply: 0.509

Ask: May I ask what protein stability index has been recorded for "SQCVVYLSVRFS" ?
Reply: 0.479

Ask: May I ask what protein stability index has been recorded for "FSRPTYYFIRHS" ?
Reply: 0.69

Ask: May I ask what protein stability index has been recorded for "GLCSGTGARWLV" ?
Reply: 0.749

Ask: May I ask what protein stability index has been recorded for "VILCSCSFVLRP" ?
Reply: 0.572

Ask: May I ask what protein stability index has been recorded for "FKVTWGLFYGSV" ?
Reply: 0.581

Ask: May I ask what protein stability index has been recorded for "KFKRLTKFYARQ" ?
Reply: 0.618

Ask: May I ask what protein stability index has been recorded for "FICLLFSCVYLG" ?
Reply: 0.593

Ask: May I ask what protein stability index has been recorded for "CRFYIRITRRYS" ?
Reply: 0.584

Ask: May I ask what protein stability index has been recorded for "SSGRLRFISRIH" ?
Reply: 0.749

Ask: May I ask what protein stability index has been recorded for "PVGRSVFFVWFL" ?
Reply: 0.744

Ask: May I ask what protein stability index has been recorded for "ILFRRRLCCFLK" ?
Reply: 0.536

Ask: May I ask what protein stability index has been recorded for "VCFFLFWCLSFS" ?
Reply: 0.492

Ask: May I ask what protein stability index has been recorded for "LSARVFCFWFFS" ?
Reply: 0.677

Ask: May I ask what protein stability index has been recorded for "LMLIPRLLVGAH" ?
Reply: 0.296

Ask: May I ask what protein stability index has been recorded for "FSLGGVPYVFFV" ?
Reply: 0.716

Ask: May I ask what protein stability index has been recorded for "VTTTWTWTVRLC" ?
Reply: 0.656

Ask: May I ask what protein stability index has been recorded for "PVLYSFSLWIHL" ?
Reply: 0.457

Ask: May I ask what protein stability index has been recorded for "LVWDLFRCFSML" ?
Reply: 0.759

Ask: May I ask what protein stability index has been recorded for "CRLLVFGLCVGA" ?
Reply: 0.419

Ask: May I ask what protein stability index has been recorded for "SVVYVIYCGGIL" ?
Reply: 0.555

Ask: May I ask what protein stability index has been recorded for "LPIFWVWFSVFR" ?
Reply: 0.445

Ask: May I ask what protein stability index has been recorded for "TFVLREYVWVMS" ?
Reply: 0.443

Ask: May I ask what protein stability index has been recorded for "RRGLIFFLCCPA" ?
Reply: 0.472

Ask: May I ask what protein stability index has been recorded for "LWERRSRQLTMF" ?
Reply: 0.74

Ask: May I ask what protein stability index has been recorded for "WLMVGVDWRFVG" ?
Reply: 0.709

---

test system: Saccharomyces cerevisiae; test: protein stability index of tFT-peptide fusion (C-terminal peptide) (PSI (0-1 scale)); higher = more stable (slower turnover); conditions: genetic background: wild type; temperature: 30 C
Observation Type: protein stability index
Reply briefly: the number, and no unit.

Ask: May I ask what protein stability index has been recorded for "LGFSCHGRPPCS" ?
Reply: 0.699

Ask: May I ask what protein stability index has been recorded for "VRFSVKPAFVRV" ?
Reply: 0.577

Ask: May I ask what protein stability index has been recorded for "PPPPPVLPNRIP" ?
Reply: 0.781

Ask: May I ask what protein stability index has been recorded for "YQSLVSIDLGFS" ?
Reply: 0.745

Ask: May I ask what protein stability index has been recorded for "FRPNPCLSPCSA" ?
Reply: 0.643

Ask: May I ask what protein stability index has been recorded for "LGRTFEEEKYAY" ?
Reply: 0.767

Ask: May I ask what protein stability index has been recorded for "YSSLPPAFPNRS" ?
Reply: 0.734

Ask: May I ask what protein stability index has been recorded for "FVVLALKESFSV" ?
Reply: 0.605

Ask: May I ask what protein stability index has been recorded for "GAGWGWGRKGSR" ?
Reply: 0.751

Ask: May I ask what protein stability index has been recorded for "CHNVIEKIRNNK" ?
Reply: 0.657

Ask: May I ask what protein stability index has been recorded for "GTLARFLTHFNP" ?
Reply: 0.666

Ask: May I ask what protein stability index has been recorded for "STLCVRLITSAR" ?
Reply: 0.649

Ask: May I ask what protein stability index has been recorded for "RIKKKKKIKRNN" ?
Reply: 0.7

Ask: May I ask what protein stability index has been recorded for "FRPLPFYRLSPP" ?
Reply: 0.727

Ask: May I ask what protein stability index has been recorded for "NKIKKKRTEPQP" ?
Reply: 0.665

Ask: May I ask what protein stability index has been recorded for "LPAPLGPRIPSL" ?
Reply: 0.753

Ask: May I ask what protein stability index has been recorded for "PPFVLLVPTSLS" ?
Reply: 0.68

Ask: May I ask what protein stability index has been recorded for "RAVHSSPHVSLS" ?
Reply: 0.681

Ask: May I ask what protein stability index has been recorded for "SWICSTRSYQRE" ?
Reply: 0.702

Ask: May I ask what protein stability index has been recorded for "GTLSLAACLSEN" ?
Reply: 0.657

Ask: May I ask what protein stability index has been recorded for "GGRPRGLVAGAA" ?
Reply: 0.657

Ask: May I ask what protein stability index has been recorded for "LSLWPIFGIIYC" ?
Reply: 0.451

Ask: May I ask what protein stability index has been recorded for "TLRLPLHLLRPT" ?
Reply: 0.642

Ask: May I ask what protein stability index has been recorded for "PPPPFAAALSTP" ?
Reply: 0.69

Ask: May I ask what protein stability index has been recorded for "RGGGAARGGGVG" ?
Reply: 0.658

Ask: May I ask what protein stability index has been recorded for "PRSVPLCALLSL" ?
Reply: 0.654

Ask: May I ask what protein stability index has been recorded for "PSALPLFWSELF" ?
Reply: 0.661

Ask: May I ask what protein stability index has been recorded for "LPLHPHRSRYLV" ?
Reply: 0.21

---

test system: Saccharomyces cerevisiae; assay: protein stability index of tFT-peptide fusion (C-terminal peptide) (PSI (0-1 scale)); higher = more stable (slower turnover); settings: genetic background: cdc53-1; temperature: 37 C
Observation Type: protein stability index

Ask: May I ask what protein stability index has been recorded for "SGFLRFRGLVCY" ?
Reply: 0.445

Ask: May I ask what protein stability index has been recorded for "DLAWAIGRLTKG" ?
Reply: 0.769

Ask: May I ask what protein stability index has been recorded for "GVFISFFFVFRF" ?
Reply: 0.173

Ask: May I ask what protein stability index has been recorded for "AKVSFYALARQY" ?
Reply: 0.715

The measurements presented in this section are drawn from the supplement of paper PMC10724198.
